# method summary: Screening of crystallization inhibitors: sorafenib content in polymer carrier/cholate medium over time
# Type: physicochemical
# conditions used: pH 6.8 phosphate + 0.1% SDS with the inhibitor, 37° C., 0.5 h
readout: Sorafenib content detection (µg/mL)

Use these answered entries as a reference point.
{"columns": ["compound", "Sorafenib content detection / µg/mL"],
 "data": [
  ["C[C@H](CCC(=O)NCCS(=O)(=O)[O-])[C@H]1CC[C@H]2[C@@H]3[C@@H](O)C[C@@H]4C[C@H](O)CC[C@]4(C)[C@H]3CC[C@]12C.[Na+] [0.3% STCDC]", 14.43],
  ["C[C@H](CCC(=O)NCC(=O)[O-])[C@H]1CC[C@H]2[C@@H]3[C@H](O)C[C@@H]4C[C@H](O)CC[C@]4(C)[C@H]3CC[C@]12C.[Na+] [0.3% SGCDC, sodium glycochenodeoxycholate]", 61.59],
  ["C[C@H](CCC(=O)NCC(=O)[O-])[C@H]1CC[C@H]2[C@@H]3CC[C@@H]4C[C@H](O)CC[C@]4(C)[C@H]3C[C@H](O)[C@]12C.[Na+] [0.3% SGDC, sodium glycodeoxycholate]", 15.78]
]}

1 = C[C@H](CCC(=O)NCC(=O)[O-])[C@H]1CC[C@H]2[C@@H]3[C@H](O)C[C@@H]4C[C@H](O)CC[C@]4(C)[C@H]3C[C@H](O)[C@]12C.[Na+] [0.3% SGC, sodium glycocholate]
2 = C[C@H](CCC(=O)NCCS(=O)(=O)[O-])[C@H]1CC[C@H]2[C@@H]3CC[C@@H]4C[C@H](O)CC[C@]4(C)[C@H]3C[C@H](O)[C@]12C.[Na+] [0.3% STDC, sodium taurodeoxycholate]
Input: Of the pair 1 and 2 , name the member with the lesser recorded Sorafenib content detection. Record your answer as the label of the chosen record.
Output: 1
(1: 14.32 µg/mL, 2: 47.72 µg/mL)

* * *

# method summary: Solubility of sorafenib in different organic solvents
# Format: physicochemical
# conditions used: organic solvent, 37 °C, organic solvent or mixture, thermodynamic from solid, dichloromethane-acetone 3:1, 24 h, 37° C.
readout: solubility at 24 h (µg/mL)
Numeric answer only, unit µg/mL assumed.

Input: Report solubility at 24 h, nothing else, for this compound: CNC(=O)c1cc(Oc2ccc(NC(=O)Nc3ccc(Cl)c(C(F)(F)F)c3)cc2)ccn1 [sorafenib]
Output: 4040

* * *

# method summary: Solubility of sorafenib in different organic solvents
# Type: physicochemical
# conditions used: organic solvent, 37 °C, organic solvent or mixture, thermodynamic from solid, isopropanol, 24 h
readout: solubility at 24 h (µg/mL)
Number only, in µg/mL; omit the unit.

Input: Entry CNC(=O)c1cc(Oc2ccc(NC(=O)Nc3ccc(Cl)c(C(F)(F)F)c3)cc2)ccn1 [sorafenib] needs its solubility at 24 h filled in; supply it.
Output: 2810

* * *

# method summary: Solubility of sorafenib in different organic solvents
# Type: physicochemical
# conditions used: organic solvent, 37 °C, organic solvent or mixture, thermodynamic from solid, methanol-dichloromethane 1:0.5 (v/v), 30 min, 37° C.
readout: solubility at 30 min (µg/mL)
Response body: numeric value in µg/mL, unit text excluded.

Input: Kindly indicate its recorded solubility at 30 min. Item: CNC(=O)c1cc(Oc2ccc(NC(=O)Nc3ccc(Cl)c(C(F)(F)F)c3)cc2)ccn1 [sorafenib]
Output: 8340

* * *

# method summary: Solubility of sorafenib in different organic solvents
# Type: physicochemical
# conditions used: organic solvent, 37 °C, organic solvent or mixture, thermodynamic from solid, methanol-dichloromethane 1:4, 24 h, 37° C.
readout: solubility at 24 h (mg/mL)
// return numeric value only (unit: mg/mL, not printed)

Input: In one line, give reported solubility at 24 h of the entry CNC(=O)c1cc(Oc2ccc(NC(=O)Nc3ccc(Cl)c(C(F)(F)F)c3)cc2)ccn1 .
Output: 36.3

* * *

# method summary: Solubility of sorafenib in different organic solvents
# Type: physicochemical
# conditions used: organic solvent, 37 °C, organic solvent or mixture, thermodynamic from solid, methanol-dichloromethane 1:3, 30 min, 37° C.
readout: solubility at 30 min (mg/mL)
Answer with a number only, understood to be in mg/mL.

Input: Check the records and state solubility at 30 min for CNC(=O)c1cc(Oc2ccc(NC(=O)Nc3ccc(Cl)c(C(F)(F)F)c3)cc2)ccn1 [sorafenib]
Output: 36.4

* * *

# method summary: Screening of crystallization inhibitors: sorafenib content in polymer carrier/cholate medium over time
# Type: physicochemical
# conditions used: pH 6.8 phosphate + 0.1% SDS with the inhibitor, 37° C., 4 h
readout: Sorafenib content detection (µg/mL)

{"columns": ["molecule", "unit abbrev", "reported result"],
 "data": [
  ["C[C@H](CCC(=O)NCC(=O)[O-])[C@H]1CC[C@H]2[C@@H]3[C@H](O)C[C@@H]4C[C@H](O)CC[C@]4(C)[C@H]3CC[C@]12C.[Na+] [0.3% SGCDC, sodium glycochenodeoxycholate]", "µg/mL", 4.28],
  ["C[C@H](CCC(=O)NCCS(=O)(=O)[O-])[C@H]1CC[C@H]2[C@@H]3[C@@H](O)C[C@@H]4C[C@H](O)CC[C@]4(C)[C@H]3CC[C@]12C.[Na+] [0.3% STCDC]", "µg/mL", 4.81],
  ["C[C@H](CCC(=O)NCC(=O)[O-])[C@H]1CC[C@H]2[C@@H]3CC[C@@H]4C[C@H](O)CC[C@]4(C)[C@H]3C[C@H](O)[C@]12C.[Na+] [0.3% SGDC, sodium glycodeoxycholate]", "µg/mL", 4.04]
]}

I = C[C@H](CCC(=O)NCC(=O)[O-])[C@H]1CC[C@H]2[C@@H]3[C@H](O)C[C@@H]4C[C@H](O)CC[C@]4(C)[C@H]3C[C@H](O)[C@]12C.[Na+] [0.3% SGC, sodium glycocholate]
II = C[C@H](CCC(=O)NCCS(=O)(=O)[O-])[C@H]1CC[C@H]2[C@@H]3CC[C@@H]4C[C@H](O)CC[C@]4(C)[C@H]3C[C@H](O)[C@]12C.[Na+] [0.3% STDC, sodium taurodeoxycholate]
Input: Task for the reader: decide whether I or II has the larger Sorafenib content detection. Write down the label attached to your selection.
Output: II
(II: 6.58 µg/mL, I: 3.77 µg/mL)

* * *

# method summary: Screening of crystallization inhibitors: sorafenib content in polymer carrier/cholate medium over time
# Type: physicochemical
# conditions used: pH 6.8 phosphate + 0.1% SDS with the inhibitor, 37° C., 3 h
readout: Sorafenib content detection (µg/mL)

{"columns": ["compound", "unit abbrev", "Sorafenib content detection"],
 "data": [
  ["C[C@H](CCC(=O)NCC(=O)[O-])[C@H]1CC[C@H]2[C@@H]3[C@H](O)C[C@@H]4C[C@H](O)CC[C@]4(C)[C@H]3C[C@H](O)[C@]12C.[Na+] [0.3% SGC, sodium glycocholate]", "µg/mL", 3.98],
  ["C[C@H](CCC(=O)NCC(=O)[O-])[C@H]1CC[C@H]2[C@@H]3[C@H](O)C[C@@H]4C[C@H](O)CC[C@]4(C)[C@H]3CC[C@]12C.[Na+] [0.3% SGCDC, sodium glycochenodeoxycholate]", "µg/mL", 5.38],
  ["C[C@H](CCC(=O)NCC(=O)[O-])[C@H]1CC[C@H]2[C@@H]3CC[C@@H]4C[C@H](O)CC[C@]4(C)[C@H]3C[C@H](O)[C@]12C.[Na+] [0.3% SGDC, sodium glycodeoxycholate]", "µg/mL", 4.01]
]}

I = C[C@H](CCC(=O)NCCS(=O)(=O)[O-])[C@H]1CC[C@H]2[C@@H]3[C@@H](O)C[C@@H]4C[C@H](O)CC[C@]4(C)[C@H]3CC[C@]12C.[Na+]
II = C[C@H](CCC(=O)NCCS(=O)(=O)[O-])[C@H]1CC[C@H]2[C@@H]3CC[C@@H]4C[C@H](O)CC[C@]4(C)[C@H]3C[C@H](O)[C@]12C.[Na+] [0.3% STDC, sodium taurodeoxycholate]
Input: Given the listed records, identify the one among I and II with higher Sorafenib content detection. # answer = label of selected item
Output: II

* * *

# method summary: Solubility test of solid dispersions (pH 1.0 hydrochloric acid, pH 6.8 phosphate buffer, FaSSGF, FaSSIF)
# Format: physicochemical
# conditions used: phosphate buffer, 37 °C, pH 6.8, aqueous buffer, thermodynamic from solid, pH 6.8 phosphate buffer solution, 0.5 h, main drug:carrier 1:3
readout: solubility at 0.5 h

Input: Answer with reported solubility at 0.5 h of CNC(=O)c1cc(Oc2ccc(NC(=O)Nc3ccc(Cl)c(C(F)(F)F)c3)cc2)ccn1 [sorafenib]
Output: < 0.09 µg/mL

* * *

# method summary: Screening of crystallization inhibitors: sorafenib content in polymer carrier/cholate medium over time
# Assay type: physicochemical
# conditions used: pH 6.8 phosphate + 0.1% SDS with the inhibitor, 37° C., 6 h
readout: Sorafenib content detection (µg/mL)

{"columns": ["compound", "readout", "unit abbrev", "reported result"],
 "data": [
  ["C[C@H](CCC(=O)NCCS(=O)(=O)[O-])[C@H]1CC[C@H]2[C@@H]3[C@@H](O)C[C@@H]4C[C@H](O)CC[C@]4(C)[C@H]3CC[C@]12C.[Na+]", "Sorafenib content detection", "µg/mL", 5.79],
  ["C[C@H](CCC(=O)NCC(=O)[O-])[C@H]1CC[C@H]2[C@@H]3CC[C@@H]4C[C@H](O)CC[C@]4(C)[C@H]3C[C@H](O)[C@]12C.[Na+] [0.3% SGDC, sodium glycodeoxycholate]", "Sorafenib content detection", "µg/mL", 3.87],
  ["C[C@H](CCC(=O)NCC(=O)[O-])[C@H]1CC[C@H]2[C@@H]3[C@H](O)C[C@@H]4C[C@H](O)CC[C@]4(C)[C@H]3CC[C@]12C.[Na+] [0.3% SGCDC, sodium glycochenodeoxycholate]", "Sorafenib content detection", "µg/mL", 3.68]
]}

P = C[C@H](CCC(=O)NCCS(=O)(=O)[O-])[C@H]1CC[C@H]2[C@@H]3CC[C@@H]4C[C@H](O)CC[C@]4(C)[C@H]3C[C@H](O)[C@]12C.[Na+] [0.3% STDC, sodium taurodeoxycholate]
Q = C[C@H](CCC(=O)NCC(=O)[O-])[C@H]1CC[C@H]2[C@@H]3[C@H](O)C[C@@H]4C[C@H](O)CC[C@]4(C)[C@H]3C[C@H](O)[C@]12C.[Na+] [0.3% SGC, sodium glycocholate]
Input: For this pair, P and Q , which shows a numerically higher Sorafenib content detection? Refer to your chosen item by its label in the answer.
Output: P

Values were extracted from patent US20230310393A1.
